B1: EF-hand domain-containing protein 1 (Homo sapiens), Q5JVL4 (parent)
chain: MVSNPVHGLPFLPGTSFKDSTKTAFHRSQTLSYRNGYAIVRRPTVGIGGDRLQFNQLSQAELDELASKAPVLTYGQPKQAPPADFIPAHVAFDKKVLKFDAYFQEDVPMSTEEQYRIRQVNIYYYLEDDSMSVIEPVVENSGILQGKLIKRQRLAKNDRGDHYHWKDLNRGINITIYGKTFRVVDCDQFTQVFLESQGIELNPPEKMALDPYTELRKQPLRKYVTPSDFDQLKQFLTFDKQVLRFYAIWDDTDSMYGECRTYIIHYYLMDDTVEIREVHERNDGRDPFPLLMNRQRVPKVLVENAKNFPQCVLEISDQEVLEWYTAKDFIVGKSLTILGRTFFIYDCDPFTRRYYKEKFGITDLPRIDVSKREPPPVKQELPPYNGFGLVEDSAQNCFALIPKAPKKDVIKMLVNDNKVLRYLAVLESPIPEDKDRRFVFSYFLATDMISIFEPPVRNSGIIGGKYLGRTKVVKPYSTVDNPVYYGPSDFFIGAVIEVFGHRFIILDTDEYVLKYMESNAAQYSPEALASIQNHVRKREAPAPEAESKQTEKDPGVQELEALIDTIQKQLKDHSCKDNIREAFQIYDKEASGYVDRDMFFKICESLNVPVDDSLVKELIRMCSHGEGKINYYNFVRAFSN

Variants of: B1
Conditions: with KRT15, P19012
Sequence (P19012 whole entry): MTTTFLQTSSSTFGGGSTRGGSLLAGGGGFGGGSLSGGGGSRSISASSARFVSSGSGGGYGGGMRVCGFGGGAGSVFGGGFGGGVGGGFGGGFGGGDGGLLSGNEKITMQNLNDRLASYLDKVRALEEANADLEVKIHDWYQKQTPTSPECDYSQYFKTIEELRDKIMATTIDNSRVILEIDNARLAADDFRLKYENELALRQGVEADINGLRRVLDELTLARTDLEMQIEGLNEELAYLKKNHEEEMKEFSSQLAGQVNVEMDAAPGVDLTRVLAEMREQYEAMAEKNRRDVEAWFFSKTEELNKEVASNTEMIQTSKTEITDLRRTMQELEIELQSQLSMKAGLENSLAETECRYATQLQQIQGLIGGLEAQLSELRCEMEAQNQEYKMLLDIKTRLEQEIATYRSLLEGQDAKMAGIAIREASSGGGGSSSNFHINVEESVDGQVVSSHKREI
quantityKind: effect of a mutation on the interaction

Data request, read-out effect of a mutation on the interaction, for M448T with no effect

Another: T508R with no effect

Please give the result for R159W too. with no effect
